From: paper PMC9656702

- Test system: HTB-54
- assay details: Antiproliferative MTT assay, HTB-54 lung cancer cells
- Format: cell-based, human
- test conditions: MTT assay, 48 h, mean ± SD; read-out: IC50 HTB-54
So I've got a bunch of compounds here, and I need their pIC50 values.
pIC50 is defined as minus the log10 of a concentration measured in mol/L.

Problem: Please report the measured pIC50 for "O=C(CC[Se]CC=Cc1ccccc1)[c-]1cccc1.[Fe+2].c1cc[cH-]c1"
Result: 4.49

Problem: Tell us which pIC50 value is on record for "O=C(CC[Se]Cc1ccc2c(c1)OCO2)[c-]1cccc1.[Fe+2].c1cc[cH-]c1"
Result: 4.53
